- Species on record: Mus musculus
- Method description: Radioactivity uptake in the kidneys was expressed as a percentage of the injected radioactive dose per gram of tissue (% ID/g) in B16/F1 Murine Melanoma-Bearing C57 Mice at 0.5 h
- Format: functional, organism-based
- Run conditions: Kidney
Outcome measure: ID/g (%)
Provide only the numeric value, understood in %.

Guide cases for ID/g, answers given:
>  <Substance>
Ac-Lys(DOTA)-ReCCEHdFRWCKPV-NH2

>  <Unit text>
%

>  <Reported result>
23.4

$$$$
>  <Substance>
DOTA-ReCCEHdFRWCKPV-OH

>  <Unit text>
%

>  <Reported result>
11.5

$$$$
>  <Substance>
DOTA-ReCCEHdFRWCRPV-NH2

>  <Unit text>
%

>  <Reported result>
9.31

$$$$
>  <Substance>
DOTA-ReCCEHdFRWCKPVD-OH

>  <Unit text>
%

>  <Reported result>
11.5

$$$$

Kindly consider the entry below.
# input substance: `DOTA-ReCCEHdFRWCKPV-NH2` ; wanted: its ID/g
13

###

- Organism: Mus musculus
- Method description: Uptake Ratio of Tumor/kidneys (each in % ID/g) in B16/F1 Murine Melanoma-Bearing C57 Mice at 24 h
- Format: functional, organism-based
- Run conditions: Kidney
Outcome measure: Uptake ratio
// return a plain number; no unit text

>  <Substance>
DOTA-ReCCEHdFRWCKPV-NH2

>  <Reported result>
0.88

$$$$
>  <Substance>
DOTA-ReCCEHdFRWCRPV-NH2

>  <Reported result>
1.5

$$$$
>  <Substance>
DOTA-ReCCEHdFRWCKPV-OH

>  <Reported result>
0.43

$$$$
>  <Substance>
Ac-Lys(DOTA)-ReCCEHdFRWCKPV-NH2

>  <Reported result>
0.27

$$$$

Kindly consider the entry below.
# input substance: `DOTA-ReCCEHdFRWCKPVD-OH` ; wanted: its Uptake ratio
0.4

###

- Organism: Mus musculus
- Method description: Uptake Ratio of Tumor/liver (each in % ID/g) in B16/F1 Murine Melanoma-Bearing C57 Mice at 24 h
- Type: functional, organism-based
Measured Uptake ratio, listed per entry for reference.
// return a plain number; no unit text

Guide cases for Uptake ratio, answers given:
>  <Substance>
DOTA-ReCCEHdFRWCKPV-OH

>  <Uptake ratio>
18.5

$$$$
>  <Substance>
DOTA-ReCCEHdFRWCKPVD-OH

>  <Uptake ratio>
12.9

$$$$
>  <Substance>
DOTA-ReCCEHdFRWCKPV-NH2

>  <Uptake ratio>
32.7

$$$$
>  <Substance>
DOTA-ReCCEHdFRWCRPV-NH2

>  <Uptake ratio>
25.6

$$$$

Kindly consider the entry below.
# input substance: `Ac-Lys(DOTA)-ReCCEHdFRWCKPV-NH2` ; wanted: its Uptake ratio
12.7

###

Measured ID/g, listed per entry for reference.
- Organism: Mus musculus
- Method description: Radioactivity uptake in the liver was expressed as a percentage of the injected radioactive dose per gram of tissue (% ID/g) in B16/F1 Murine Melanoma-Bearing C57 Mice at 0.5 h
- Assay type: functional, organism-based
Provide only the numeric value, understood in %.

Guide cases for ID/g, answers given:
>  <Substance>
DOTA-ReCCEHdFRWCKPVD-OH

>  <ID/g / %>
0.43

$$$$
>  <Substance>
DOTA-ReCCEHdFRWCKPV-NH2

>  <ID/g / %>
0.59

$$$$
>  <Substance>
DOTA-ReCCEHdFRWCRPV-NH2

>  <ID/g / %>
0.66

$$$$

# input substance: `DOTA-ReCCEHdFRWCKPV-OH` ; wanted: its ID/g
0.45

Thanks! And `Ac-Lys(DOTA)-ReCCEHdFRWCKPV-NH2` ?
0.66
